Target: RNA-binding protein pos-1 (Caenorhabditis elegans)
Sequence (G5EF15 whole entry, the tested form may be a part): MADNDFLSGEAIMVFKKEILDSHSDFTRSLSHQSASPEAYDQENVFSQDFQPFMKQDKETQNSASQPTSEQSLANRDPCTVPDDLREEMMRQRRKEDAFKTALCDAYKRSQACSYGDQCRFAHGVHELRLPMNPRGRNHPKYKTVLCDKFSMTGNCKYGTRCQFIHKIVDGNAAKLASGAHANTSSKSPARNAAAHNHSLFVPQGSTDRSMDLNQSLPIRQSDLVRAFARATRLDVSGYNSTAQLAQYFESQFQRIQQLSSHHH
Experiment: inhibitors of POS-1/mex-3 RNA binding, dose response, biochemical, fluorescence polarization (AID 1964);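 also: purified POS-1 fused to maltose binding protein made in E. coli; potency of compounds blocking POS-1 binding to fluorescent RNA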
The source made the active and inactive calls.
measured parameter: EC50

{"columns": ["compound structure string", "target of assay", "EC50"],
 "data": [
  ["CN1c2ccc(C=O)c3c(C=O)ccc(c23)N(C)C1(C)C", "RNA-binding protein pos-1 (Caenorhabditis elegans)", "74 µM (inconclusive)"],
  ["CCOC(=O)N1CC=C2C(C#N)=C(N)C(C#N)(C#N)[C@H](c3ccsc3)[C@H]2C1", "RNA-binding protein pos-1 (Caenorhabditis elegans)", "78.8 µM (active)"],
  ["Cc1[nH]c2ccccc2c1/C=N/NC(=S)NC(C)C", "RNA-binding protein pos-1 (Caenorhabditis elegans)", "> 300 µM (not active)"]
]}

For the molecule Cc1ccc(NC(=O)CN2C(=O)S/C(=C\c3cc(C)n(-c4cccc(C(=O)O)c4)c3C)C2=O)cc1 , give its reported EC50.
> 300 µM (not active)

###

Form: system (Cytochrome P450 2C9 (Homo sapiens, UniProt P11712)), quantity (AC50), values below.

{"columns": ["molecule", "measured parameter", "recorded result"],
 "data": [
  ["Cc1cccc(C(=O)NN(C)c2nc(-c3ccccc3)nnc2C(F)(F)F)c1", "AC50", "0.316 µM (inconclusive)"],
  ["CCCCN1C(=O)C(NC(=O)c2cccnc2)(C(F)(F)F)C2=C1CC(C)(C)CC2=O (centres undefined)", "AC50", "35.5 µM (inconclusive)"],
  ["CC(C)c1nnc(-c2ccc(Cl)cc2)c(N(C)C)n1", "AC50", "10 µM (inconclusive)"],
  ["Nc1cc2c(nc3c4ccccc4c(N)cc3[n+]2-c2cccc3ccccc23)c2ccccc12.Nc1cc2c(nc3c4ccccc4ccc3[n+]2-c2cccc3ccccc23)c2ccccc12", "AC50", "2.51 µM (inconclusive)"]
]}

Give me measured AC50, please, for this molecule: NCCCCNS(=O)(=O)c1cccc2c(Cl)cccc12
12.6 µM (inconclusive)

Tell us which AC50 value is on record for CCCCN1C(=O)/C(=C/c2ccc(N(C)C)cc2)C(=O)N(Cc2ccco2)C1=O
35.5 µM (inconclusive)

Output measured AC50 for this item: c1ccc(CSc2nnc(-c3sccc3-n3cccc3)o2)cc1
39.8 µM (inconclusive)

Check the records and state AC50 for O=C(O)c1c(Br)c(Br)c(Br)c(Br)c1C1c2ccc(O)cc2Oc2cc(O)ccc21
7.94 µM (inconclusive)

Please look at this molecule and report its AC50: Cc1nc(S(=O)(=O)NC2CCCCC2)c(C#N)c(C)c1Cl
28.2 µM (inconclusive)

###

Target: Cytochrome P450 3A4 (Homo sapiens, UniProt P08684);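 also: CYP3A4 tested as one member of a cytochrome P450 panel screen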
Sequence (P08684 whole entry): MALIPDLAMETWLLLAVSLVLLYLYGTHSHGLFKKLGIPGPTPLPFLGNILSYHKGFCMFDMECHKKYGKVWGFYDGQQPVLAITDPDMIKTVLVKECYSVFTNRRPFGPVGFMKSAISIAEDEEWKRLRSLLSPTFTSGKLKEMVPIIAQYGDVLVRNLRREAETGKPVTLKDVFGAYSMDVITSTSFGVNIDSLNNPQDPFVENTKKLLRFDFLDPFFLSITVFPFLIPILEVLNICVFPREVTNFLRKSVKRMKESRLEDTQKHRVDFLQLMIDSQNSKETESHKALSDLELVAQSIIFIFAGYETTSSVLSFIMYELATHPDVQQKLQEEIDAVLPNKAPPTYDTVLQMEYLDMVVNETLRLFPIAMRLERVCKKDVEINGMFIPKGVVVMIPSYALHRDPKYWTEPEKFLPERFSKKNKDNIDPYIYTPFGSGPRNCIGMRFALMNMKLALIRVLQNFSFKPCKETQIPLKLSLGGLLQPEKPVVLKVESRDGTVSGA
measured parameter: AC50

Recorded results for 5 compounds are shown here.
{"columns": ["compound", "AC50"],
 "data": [
  ["CCNc1ncc2ncc(=O)n(Cc3cccs3)c2n1", "20 µM (inconclusive)"],
  ["CC(=O)NCc1c(Cl)cccc1-n1cccc1", "39.8 µM (inconclusive)"],
  ["O=C(O)c1c(Br)c(Br)c(Br)c(Br)c1C1c2ccc(O)cc2Oc2cc(O)ccc21", "3.98 µM (inconclusive)"],
  ["Cn1cccc1C(=O)N1CCC2(CCCN(Cc3ccccc3)C2)CC1", "31.6 µM (inconclusive)"],
  ["CCC/C=C(\\CCC)C(NC(=O)c1ccc(C(F)(F)F)cc1)c1ccc(C(F)(F)F)cc1 (stereo not given)", "10 µM (inconclusive)"]
]}

Give AC50 for CCOc1ccccc1-n1nnnc1SCC(=O)Nc1cc(C)on1
3.98 µM (inconclusive)

Report AC50 for Cc1ccc(CNC(=O)Cn2cncn2)cc1
14.1 µM (inconclusive)

# return recorded AC50 for entry NCCCCNS(=O)(=O)c1cccc2c(Cl)cccc12
25.1 µM (inconclusive)

Respond only with AC50 recorded for Cc1ccc(C)c(NC(=O)C2CC(O)CN2C(=O)OC(C)(C)C)c1 (stereo not given)
25.1 µM (inconclusive)

Item COC(=O)c1ccc(C(NC(=O)c2ccccc2)[C@]2(C)C[C@H]2C2CCCCC2)cc1 (stereo not given in full) : provide AC50
6.31 µM (inconclusive)

Return value of AC50 for input O=C(N/N=C/c1c[nH]c2ccc(Br)cc12)c1ccn(Cc2ccc(Cl)cc2)n1 , no commentary.
3.98 µM (inconclusive)

Read off the recorded AC50 for CN(C)CC(C)(C)CN1c2ccccc2Sc2ccccc21
5.01 µM (inconclusive)

###

Biological target: Trace amine-associated receptor 1 (Homo sapiens);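 also: inhibition of calcium response to PEA at EC80 in Galpha16 coupled cells measured by Fluo-8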
Sequence (Q96RJ0 whole entry): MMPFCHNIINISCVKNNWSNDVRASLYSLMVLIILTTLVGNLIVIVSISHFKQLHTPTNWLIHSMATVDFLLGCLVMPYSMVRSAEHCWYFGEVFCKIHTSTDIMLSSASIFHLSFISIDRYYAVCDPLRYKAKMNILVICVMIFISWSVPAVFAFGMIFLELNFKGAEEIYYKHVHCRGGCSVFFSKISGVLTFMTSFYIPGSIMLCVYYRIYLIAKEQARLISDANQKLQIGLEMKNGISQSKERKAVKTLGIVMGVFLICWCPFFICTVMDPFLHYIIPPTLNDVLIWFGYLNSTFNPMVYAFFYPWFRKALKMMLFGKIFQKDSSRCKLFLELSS
Assay: Counterscreen for agonists of the human trace amine associated receptor 1 (hTAAR1): Fluorescence-based cell-based high throughput dose response assay to identify hTAAR1 agonist that also desensitize TAAR1 receptor response.
Format: functional
Calls of active or inactive are those of the source.
Select the correct class. Options are active, inactive and nothing else.

See these solved cases before continuing.
{"columns": ["compound structure string", "label value"],
 "data": [
  ["O=C(CNCCc1ccccc1)N1CCc2ccccc2C1", "active"],
  ["O=C(N[C@H](C(=O)N1CCC[C@H]1C(=O)NCCc1ccccc1Cl)c1ccccc1)c1ccccc1", "active"],
  ["O=C(O)CCc1ccc(-c2cccs2)n1CCc1ccccc1", "active"]
]}

Hey, what did the test say about Cc1nnn(-c2nonc2N)c1C(=O)NNC(=O)c1ccc(Cl)c(Cl)c1 ?
inactive

###

Reported IC50 values for the following compounds.
Target: DNA dC->dU-editing enzyme APOBEC-3G (Homo sapiens, UniProt Q9HC16)
Sequence (Q9HC16 whole entry): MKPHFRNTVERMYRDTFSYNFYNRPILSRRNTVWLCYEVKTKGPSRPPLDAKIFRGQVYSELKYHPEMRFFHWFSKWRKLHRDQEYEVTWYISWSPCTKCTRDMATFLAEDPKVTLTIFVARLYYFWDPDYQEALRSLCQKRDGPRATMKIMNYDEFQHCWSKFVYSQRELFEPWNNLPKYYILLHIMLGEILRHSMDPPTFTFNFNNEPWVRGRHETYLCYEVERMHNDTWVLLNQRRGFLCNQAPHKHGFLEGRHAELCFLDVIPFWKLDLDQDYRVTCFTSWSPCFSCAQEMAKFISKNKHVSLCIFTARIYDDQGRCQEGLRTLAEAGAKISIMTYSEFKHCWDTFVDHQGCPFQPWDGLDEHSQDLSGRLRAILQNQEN
Assay type: functional
Active and inactive are the calls of the source.

{"columns": ["compound structure string", "recorded result"],
 "data": [
  ["Cn1ccccc1=Nc1cccc[n+]1C", "4.12 µM (active)"]
]}

Lab note: record IC50 of C[N+](C)(C)c1ccccc1 tested on DNA dC->dU-editing enzyme APOBEC-3G (Homo sapiens, UniProt Q9HC16).
3.33 µM (active)

For DNA dC->dU-editing enzyme APOBEC-3G (Homo sapiens, UniProt Q9HC16), give the measured IC50 of the entry CN1CCN(S(=O)(=O)c2ccc(C3CCCCC3)cc2)CC1
16.8 µM (active)

Enter IC50 (test system DNA dC->dU-editing enzyme APOBEC-3G (Homo sapiens, UniProt Q9HC16)) for C[N+]1(CCOC(=O)C2(c3ccccc3)CCCC2)CCCCC1;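 also: Dose-response counterscreen measuring inhibition of APOBEC3G DNA deaminase activity, run while confirming APOBEC3A inhibitors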
3.57 µM (active)

###

Target: Induced myeloid leukemia cell differentiation protein Mcl-1 (Homo sapiens)
Sequence (Q07820 whole entry): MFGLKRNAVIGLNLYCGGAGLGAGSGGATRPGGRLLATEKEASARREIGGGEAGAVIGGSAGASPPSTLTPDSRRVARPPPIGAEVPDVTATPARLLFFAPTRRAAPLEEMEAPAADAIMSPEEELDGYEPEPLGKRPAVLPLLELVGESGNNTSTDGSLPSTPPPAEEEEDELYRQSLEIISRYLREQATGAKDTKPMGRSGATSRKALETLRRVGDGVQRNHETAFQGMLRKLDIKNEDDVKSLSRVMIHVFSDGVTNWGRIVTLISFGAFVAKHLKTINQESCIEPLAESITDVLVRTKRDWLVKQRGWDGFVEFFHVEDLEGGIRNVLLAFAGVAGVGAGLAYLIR
Type: functional
Active and inactive are the calls of the source.
measured parameter: IC50

{"columns": ["compound structure string", "target of assay", "IC50"],
 "data": [
  ["CNC(=S)Nc1sc2c(c1C(=O)OC)CCC2", "Induced myeloid leukemia cell differentiation protein Mcl-1 (Homo sapiens)", "1.48 µM (active)"],
  ["COc1ccc(CN2C(=O)NC(=O)/C(=C/c3ccc([N+](=O)[O-])o3)C2=O)cc1", "Induced myeloid leukemia cell differentiation protein Mcl-1 (Homo sapiens)", "3.22 µM (active)"],
  ["O=[N+]([O-])c1cc(/C=N/Nc2nc3ccccc3[nH]2)c(O)cc1O", "Induced myeloid leukemia cell differentiation protein Mcl-1 (Homo sapiens)", "6.08 µM (active)"]
]}

Next item in the queue.
Please report the measured IC50 for Nc1cccc(C2=Nc3cccc4cccc(c34)N2)c1 tested on Induced myeloid leukemia cell differentiation protein Mcl-1 (Homo sapiens).
3 µM (active)

###

Recorded IC50 by entry
Target: Large T antigen (Simian virus 40);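 also: Confirmatory-stage PubChem screen for compounds that inhibit SV40 T antigen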
Sequence (P03070 whole entry): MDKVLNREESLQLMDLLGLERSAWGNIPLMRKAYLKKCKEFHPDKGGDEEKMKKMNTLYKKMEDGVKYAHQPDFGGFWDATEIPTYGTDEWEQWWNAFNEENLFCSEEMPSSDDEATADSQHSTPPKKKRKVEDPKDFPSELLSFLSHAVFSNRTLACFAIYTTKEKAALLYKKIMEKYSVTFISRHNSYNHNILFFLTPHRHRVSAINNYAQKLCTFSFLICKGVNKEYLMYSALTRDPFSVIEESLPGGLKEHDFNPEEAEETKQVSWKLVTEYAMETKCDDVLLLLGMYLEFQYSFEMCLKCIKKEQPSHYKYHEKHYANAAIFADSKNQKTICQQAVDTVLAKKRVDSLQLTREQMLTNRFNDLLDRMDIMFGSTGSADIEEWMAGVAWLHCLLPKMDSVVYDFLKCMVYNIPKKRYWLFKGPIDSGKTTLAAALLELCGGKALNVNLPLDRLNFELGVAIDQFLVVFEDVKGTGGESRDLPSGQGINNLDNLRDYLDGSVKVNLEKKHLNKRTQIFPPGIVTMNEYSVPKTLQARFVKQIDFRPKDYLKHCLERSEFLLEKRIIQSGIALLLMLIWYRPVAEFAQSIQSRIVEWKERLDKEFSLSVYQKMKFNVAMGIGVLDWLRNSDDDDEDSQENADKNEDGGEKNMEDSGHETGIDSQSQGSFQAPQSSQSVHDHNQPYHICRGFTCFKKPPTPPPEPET
Format: functional, Betapolyomavirus macacae
Calls of active or inactive are those of the source.

Some solved entries appear below for comparison.
{"columns": ["molecule", "target of assay", "measured parameter", "recorded result"],
 "data": [
  ["CC1=C(C)C[S+]([O-])N(S(=O)(=O)c2ccc(Cl)cc2)C1 (configuration not stated)", "Large T antigen (Simian virus 40)", "IC50", "18.1 µM (active)"],
  ["NC(=O)Nc1ccc(Nc2ccccc2)cc1", "Large T antigen (Simian virus 40)", "IC50", "7.83 µM (active)"],
  ["O=C(Nc1ccc(O)cc1)c1ccc(NC(=O)C2CCCO2)cc1 (configuration not stated)", "Large T antigen (Simian virus 40)", "IC50", "11.1 µM (active)"],
  ["COc1cc(/C=C2\\CCc3c2nc2ccccc2c3C(=O)O)cc(OC)c1OC", "Large T antigen (Simian virus 40)", "IC50", "35 µM (active)"],
  ["CC(C)(O)C1Cc2cc(/C=C/C(=O)O)c(O)cc2O1 (configuration not stated)", "Large T antigen (Simian virus 40)", "IC50", "38.3 µM (active)"]
]}

Name the recorded IC50 of the molecule listed here: COc1ccc(CN2C(=O)NC(=O)/C(=C/c3ccc([N+](=O)[O-])o3)C2=O)cc1
71.7 µM (active)

Return value of IC50 for input CN1c2ccc(C=O)c3c(C=O)ccc(c23)N(C)C1(C)C , no commentary.
23 µM (active)
